// provenance: patent EP0640088B1

# Measurement Target: RT aus HIV-1 (Human immunodeficiency virus type 1 group M subtype B, UniProt P04585)
# Construct: die gereinigte RT aus HIV-1; made in house; host or cells: E. coli
# Protocol Details: Inhibition of reverse transcriptase (RT), screening test system measuring [3H]-thymidine-5'-triphosphate incorporation
# Type: biochemical
Documented pIC50 across a set of compounds
Please note pIC50 is a logarithmic value: minus log10 of concentration in mol/L. Answer with that number alone.

O=C1Nc2ccccc2C2(c3ccccc3)SCCN12 (stereo not drawn) : 6.33
Cc1cccc(C23SCCN2C(=O)Nc2ccccc23)c1 (stereo not drawn) : 7.52
Cc1cccc(C23SCCN2C(=O)Nc2ccccc23)n1 (stereo not drawn) : 6.70
CN1C(=O)N2CCSC2(c2ccccc2)c2ccccc21 (stereo not drawn) : 5.21
S=C1Nc2ccccc2C2(c3ccccc3)SCCN12 (stereo not drawn) : 7.52

**Q:** Give measured pIC50 for O=C1Nc2ccccc2C2(c3ccccc3)SCCCN12 (stereo not drawn) (RT aus HIV-1 (Human immunodeficiency virus type 1 group M subtype B, UniProt P04585)).
**A:** 6.29

* * *

# Measurement Target: RT aus HIV-1 (Human immunodeficiency virus type 1 group M subtype B)
# Construct: die gereinigte RT aus HIV-1; made in house; host or cells: E. coli
# Protocol Details: Inhibition of reverse transcriptase (RT), screening test system measuring [3H]-thymidine-5'-triphosphate incorporation
# Assay type: biochemical
# Assay Context: purified recombinant RT from HIV-1 expressed in E. coli; HIV-LTR in-vitro transcript as template, 18mer oligonucleotide primer; [3H]-TTP incorporation, β-counter; read-out: Hemmung der HIV-RT IC50
Property Label: pIC50
Please note pIC50 is a logarithmic value: minus log10 of concentration in mol/L. Answer with that number alone.

**Q:** Complete the entry with pIC50 for O=C1Nc2ccc(Cl)cc2C2(c3ccccc3)SCCN12 (stereo not shown)
**A:** 7.52
